Conditions: 303.15 K; 101.33 kPa; Liquid
observable: electrical conductivity (S/m)

> print(dat)
                                   compound  observed
1  C=CC[NH+](CC)CC.O=S(=O)([O-])C(F)(F)F [N,N-diethylprop-2-en-1-aminium trifluoromethanesulfonate]     0.419

(I) CC[NH+](C)CC.O=S(=O)([O-])C(F)(F)F [diethylmethylammonium trifluoromethanesulfonate]
(II) CCC[NH+](CC)CC.O=S(=O)([O-])C(F)(F)F [N,N-diethylpropan-1-aminium trifluoromethanesulfonate]
// query Sorting ascending by electrical conductivity, which comes first: I or II ? Lab log: write the label of the selected item as the result.
// result II

* * *

Conditions: 423.15 K; 101.33 kPa; Liquid
observable: electrical conductivity (S/m)

> print(dat)
                                   compound  observed
1  CCC[NH+](C)CCC.O=S(=O)([O-])C(F)(F)F [N-methyl-N-propylpropan-1-aminium trifluoromethanesulfonate]      4.04
2  C=CC[NH+](CC)CC.O=S(=O)([O-])C(F)(F)F [N,N-diethylprop-2-en-1-aminium trifluoromethanesulfonate]      3.91
3    C=CC[NH+](C)CC=C.O=S(=O)([O-])C(F)(F)F      4.39

* * *

Details: 323.15 K; 101.33 kPa; Liquid; Concentric cylinders viscometry
observable: viscosity (mPa·s)

> print(dat)
                                   compound  units.label  observed
1  C=CC[NH+](CC)CC.O=S(=O)([O-])C(F)(F)F [N,N-diethylprop-2-en-1-aminium trifluoromethanesulfonate]        mPa·s      25.5
2  CC[NH+](C)CC.O=S(=O)([O-])C(F)(F)F [diethylmethylammonium trifluoromethanesulfonate]        mPa·s      19.4

(A) CCC[NH+](CC)CC.O=S(=O)([O-])C(F)(F)F [N,N-diethylpropan-1-aminium trifluoromethanesulfonate]
(B) C=CC[NH+](C)C.O=S(=O)([O-])C(F)(F)F [N,N-dimethylprop-2-en-1-aminium trifluoromethanesulfonate]
// query Field: entry with larger viscosity (options A / B ). Lab log: write the label of the selected item as the result.
// result A

* * *

Settings: 363.15 K; 101.33 kPa; Liquid
observable: electrical conductivity (S/m)

> print(dat)
                                   molecule               observable  units.label  observed
1  C=CC[NH+](C)C.O=S(=O)([O-])C(F)(F)F [N,N-dimethylprop-2-en-1-aminium trifluoromethanesulfonate]  electrical conductivity          S/m      3.73

(1) CCC[NH+](C)C.O=S(=O)([O-])C(F)(F)F [N,N-dimethylpropan-1-aminium trifluoromethanesulfonate]
(2) CCC[NH+](CC)CC.O=S(=O)([O-])C(F)(F)F [N,N-diethylpropan-1-aminium trifluoromethanesulfonate]
// query Sorting ascending by electrical conductivity, which comes first: 1 or 2 ? Lab log: write the label of the selected item as the result.
// result 2

* * *

Conditions: 443.15 K; 101.33 kPa; Liquid
observable: electrical conductivity (S/m)

// below: answered compounds
> print(dat)
                                   compound               observable  observed
1  C=CC[NH+](C)C.O=S(=O)([O-])C(F)(F)F [N,N-dimethylprop-2-en-1-aminium trifluoromethanesulfonate]  electrical conductivity      8.82
2  CC[NH+](C)CC.O=S(=O)([O-])C(F)(F)F [diethylmethylammonium trifluoromethanesulfonate]  electrical conductivity      5.97
3  CCC[NH+](C)CCC.O=S(=O)([O-])C(F)(F)F [N-methyl-N-propylpropan-1-aminium trifluoromethanesulfonate]  electrical conductivity      4.88
4    C=CC[NH+](C)CC=C.O=S(=O)([O-])C(F)(F)F  electrical conductivity      5.21
5  CCC[NH+](CC)CC.O=S(=O)([O-])C(F)(F)F [N,N-diethylpropan-1-aminium trifluoromethanesulfonate]  electrical conductivity      4.31

(a) C=CC[NH+](CC)CC.O=S(=O)([O-])C(F)(F)F [N,N-diethylprop-2-en-1-aminium trifluoromethanesulfonate]
(b) CCC[NH+](C)C.O=S(=O)([O-])C(F)(F)F [N,N-dimethylpropan-1-aminium trifluoromethanesulfonate]
// query Sorting ascending by electrical conductivity, which comes first: a or b ? Lab log: write the label of the selected item as the result.
// result a
(a: 4.71 S/m, b: 7.68 S/m)

* * *

Conditions: 423.15 K; 101.33 kPa; Liquid; Concentric cylinders viscometry
observable: viscosity (mPa·s)

> print(dat)
                                   compound  observed
1  CCC[NH+](C)C.O=S(=O)([O-])C(F)(F)F [N,N-dimethylpropan-1-aminium trifluoromethanesulfonate]      3.19
2  CCC[NH+](C)CCC.O=S(=O)([O-])C(F)(F)F [N-methyl-N-propylpropan-1-aminium trifluoromethanesulfonate]      3.44
3  CCC[NH+](CC)CC.O=S(=O)([O-])C(F)(F)F [N,N-diethylpropan-1-aminium trifluoromethanesulfonate]      3.73

* * *

Conditions: 308.15 K; 101.33 kPa; Liquid; Vibrating tube method
observable: mass density (kg/m3)

> print(dat)
                                   compound  observed
1  CCC[NH+](C)C.O=S(=O)([O-])C(F)(F)F [N,N-dimethylpropan-1-aminium trifluoromethanesulfonate]      1262
2  CCC[NH+](CC)CC.O=S(=O)([O-])C(F)(F)F [N,N-diethylpropan-1-aminium trifluoromethanesulfonate]      1208
3    C=CC[NH+](C)CC=C.O=S(=O)([O-])C(F)(F)F      1239
4  C=CC[NH+](CC)CC.O=S(=O)([O-])C(F)(F)F [N,N-diethylprop-2-en-1-aminium trifluoromethanesulfonate]      1240
5  C=CC[NH+](C)C.O=S(=O)([O-])C(F)(F)F [N,N-dimethylprop-2-en-1-aminium trifluoromethanesulfonate]      1288
6  CCC[NH+](C)CCC.O=S(=O)([O-])C(F)(F)F [N-methyl-N-propylpropan-1-aminium trifluoromethanesulfonate]      1196
7  CC[NH+](C)CC.O=S(=O)([O-])C(F)(F)F [diethylmethylammonium trifluoromethanesulfonate]      1270

* * *

Conditions: 383.15 K; 101.33 kPa; Liquid; Concentric cylinders viscometry
observable: viscosity (mPa·s)

> print(dat)
                                   compound  observed
1  CCC[NH+](CC)CC.O=S(=O)([O-])C(F)(F)F [N,N-diethylpropan-1-aminium trifluoromethanesulfonate]      6.71
2    C=CC[NH+](C)CC=C.O=S(=O)([O-])C(F)(F)F      5.39
3  CCC[NH+](C)CCC.O=S(=O)([O-])C(F)(F)F [N-methyl-N-propylpropan-1-aminium trifluoromethanesulfonate]      5.96

* * *

Conditions: 363.15 K; 101.33 kPa; Liquid; Concentric cylinders viscometry
observable: viscosity (mPa·s)

> print(dat)
                                   molecule  observable  observed
1  CCC[NH+](CC)CC.O=S(=O)([O-])C(F)(F)F [N,N-diethylpropan-1-aminium trifluoromethanesulfonate]   viscosity      9.76
2  C=CC[NH+](C)C.O=S(=O)([O-])C(F)(F)F [N,N-dimethylprop-2-en-1-aminium trifluoromethanesulfonate]   viscosity      7.11
3  CCC[NH+](C)CCC.O=S(=O)([O-])C(F)(F)F [N-methyl-N-propylpropan-1-aminium trifluoromethanesulfonate]   viscosity      8.63
4    C=CC[NH+](C)CC=C.O=S(=O)([O-])C(F)(F)F   viscosity      7.61
5  CCC[NH+](C)C.O=S(=O)([O-])C(F)(F)F [N,N-dimethylpropan-1-aminium trifluoromethanesulfonate]   viscosity      7.42
6  C=CC[NH+](CC)CC.O=S(=O)([O-])C(F)(F)F [N,N-diethylprop-2-en-1-aminium trifluoromethanesulfonate]   viscosity      9.64
7  CC[NH+](C)CC.O=S(=O)([O-])C(F)(F)F [diethylmethylammonium trifluoromethanesulfonate]   viscosity      8.13

* * *

Conditions: 303.15 K; 101.33 kPa; Liquid
observable: electrical conductivity (S/m)

// below: answered compounds
> print(dat)
                                   compound  units.label  observed
1  CCC[NH+](C)CCC.O=S(=O)([O-])C(F)(F)F [N-methyl-N-propylpropan-1-aminium trifluoromethanesulfonate]          S/m     0.415
2  CCC[NH+](C)C.O=S(=O)([O-])C(F)(F)F [N,N-dimethylpropan-1-aminium trifluoromethanesulfonate]          S/m     0.901

(I) C=CC[NH+](C)C.O=S(=O)([O-])C(F)(F)F [N,N-dimethylprop-2-en-1-aminium trifluoromethanesulfonate]
(II) C=CC[NH+](C)CC=C.O=S(=O)([O-])C(F)(F)F
// query Sorting ascending by electrical conductivity, which comes first: I or II ? Lab log: write the label of the selected item as the result.
// result II
(II: 0.469 S/m, I: 0.968 S/m)
